This section presents compounds with their documented GI50 values.
System: M14
TEST: NCI tumour cell line growth inhibition, 48 h
The source made the active and inactive calls. Rule as the data show it: active = GI50 up to about 1.1 µM and inactive = higher.
REPORTED_ENDPOINT: GI50

                                    compound          measurement
 0  C1=C(CC2=C[P+](c3ccccc3)(c3ccccc3)C=C(c3ccccc3)O2)OC(c2ccccc2)=C[P+]1(c1ccccc1)c1ccccc1    0.573 µM (active)
 1  O=C(ON=C1c2ccccc2C(Br)C(Br)c2ccccc21)c1ccccc1 (stereo not drawn)   17.3 µM (inactive)
 2  Nc1ncnc2c1ncn2[C@@H]1O[C@H](COP(=O)(O)OP(=O)(O)OC[C@H]2O[C@@H](OCCCO)[C@H](O)[C@@H]2O)[C@@H](O)[C@H]1O  > 100 µM (inactive)
 3  CCc1ccccc1NC(=O)C1=C(C)NC(C)=C(C(=O)Nc2ccccc2CC)C1c1ccc2c(c1)OCO2   26.2 µM (inactive)
 4  OC(c1nc2ccccc2[nH]1)C(O)C(O)C(O)c1nc2ccccc2[nH]1 (stereo not drawn)  > 100 µM (inactive)
 5  COc1cc(C2CC(C)(N3CCCC3)Oc3cc4c(cc32)OCO4)cc(OC)c1OC (stereo not drawn)    0.394 µM (active)
 6                O=C1NC2(CCCCC2)C2=C1CCCCC2  > 100 µM (inactive)
 7                  N=C(N)NCCN1CC2CCC(CC2)C1  > 100 µM (inactive)
 8  CCc1nc2cc(/N=N/c3c(O)ccc4ccccc34)ccc2[nH]1   19.6 µM (inactive)
 9  CCC1(CN(C)C)CC/C(=C\c2ccc(OC)c(OC)c2)C1=O (stereo not drawn)  > 100 µM (inactive)
10  Nc1nc(O)c2ncn(C3C=CC(CO)C3)c2n1 (stereo not drawn)  > 100 µM (inactive)
11       Cc1nc2c(n1CCC(C)C)C(=O)c1ccccc1C2=O   20.1 µM (inactive)
12  Cc1cc(=O)[nH]c2cc(NC(=O)C(CCCNC(=N)N)NC(=O)OCc3ccccc3)ccc12 (stereo not drawn)  > 100 µM (inactive)
13  Nc1ccc2c(c1)C1Oc3ccccc3CC1CO2 (stereo not drawn)  > 100 µM (inactive)
14   Cc1cccc2c1C/C(=C\c1cccc(C)c1C(=O)O)C2=O  > 100 µM (inactive)
15          COc1ccc2c(C(=O)O)cc3ccccc3c2c1OC   16.4 µM (inactive)
16  COC(=O)C1C(=O)O[C@@H](c2ccc(OC)cc2)C1C(=O)OC (stereo partly drawn)  > 100 µM (inactive)
17  Cc1ccc(S(=O)(=O)NC2CCCCO2)cc1 (stereo not drawn)  > 100 µM (inactive)

Measured values drawn from ChEMBL document CHEMBL1201862 for this set.
